// values below are reported folding stability dG unfold
Test: folding stability dG unfold (combined trypsin and chymotrypsin); higher = more stable
resultType: folding stability dG unfold (kcal/mol)

- SAGGEVKTLEVTLEVNGKKVRVRVELTKDGTLKVTVTFEDGTKVELEIKLPKVKVKEVKFYSLEELKSAGGS [r16_48_TrROS_Hall]: 2.06
- SAGGMGLEELAKLSPEEIARRLAAEAKAAAAAAGTPDAAVTLEVTLEDKPIVVEVGADGTIRRVELGSAGGS [r16_431_JUSTAS]: 0.922
- SAGGMKINPKVFGNYVLVEVENPETGSRILKLVEFNPGPKTATVKVFYIDPNGKPTLLEEKTFSLPDLSAGG [r13_768_TrMRF]: 2.32
- SAGGMKKYKVTVTIELTPPDGTTTTVTVTIDVDGDEKKALEEAEKVAEELKAAGYPVTIKEIKIYEESAGGS [r16_525_JUSTAS]: 4.69
- SFNISVSVEPDDDKYKVTIWIQVDPEEFPGQPPTPSVIEEIARELARDWGIKEVEIEPPPNGYYRHTFPLSA [r9_883_TrROS]: 1.88
- SAGVKIKWEPIDRDPKNGHVYYSITIKVPKDGKPLDEIPIGMYQFDNDDGKWEPMPEEDIKQQAKDLLNSAG [r5_909_TrROS]: -0.415
- SAGDSIEIMVMVKTPEEAKKLADEIAQILPGNGLNIEITIMPMEELMKMFMEMTKPDPDGEYRRVRMFSAGG [r19_187_TrROS]: 1.3
- SMIIKPGMSLEEVLNKIKELLKKGEKYKITVINKETGKVYEFEIDVKTKKIKVKEVTLENGEVIIKIEKVSA [r9_1059_TrROS_Hall]: 3.05
- SAGGSAGMPSVTPVTVQMKGSREEAEAVAEELIEELRAKDPSVKVEAVEFSELPDGTYRVTITVTNSAGGSA [r15_718_JUSTAS]: 3.49
- SGLTLTLPVAPDEELKLTLKLPNTDETVEVEAETVAETGDVFAVAVATPPNGDKKVVPAVIKVEPGEPDESA [r9_770_TrMRF]: 0.642
- SAGGSAGGSMRLTVEVSSLEEAEKLAEEIEERFDVEIVRVEVEETEEGGLRVTFDVKLHPDLGSAGGSAGGS [r12_577_TrMRF]: 2.82
- SAKEEYYKVRIYFPETNEVVEIEAKSEEEALEALKKLLNEPNIVKIEIEKVEVEEEPEEKEYSEEELKSSAG [r14_747_TrROS_Hall]: 2.32
- SMKIEVSGGNVTVEMYMWRRKKERDPDDPGKERDQPEPMPQTHTIDPNDPEAAKKFLDKFPPGFRPEIHDSA [r9_476_TrROS]: 0.446

====

Test: folding stability dG unfold (combined trypsin and chymotrypsin); higher = more stable
// classify(record): look up folding stability dG unfold in ranges low band: < 0.03 kcal/mol; middle band: ≥ 0.03 kcal/mol and < 1 kcal/mol; high band: ≥ 1 kcal/mol

* SAGGSAGGPEYQMIPVKNVEIDEFDPNDGNVTIKFKGNGQEIKLPPDGIQSIEISPDQGWIYIRSAGGSAGG [r6_315_TrROS] | low band
* SAGGSAGGSAGGSSSMTSEKVTEKTEFDKETGKKYKIITQRISPSSVGNSSLKTEIKLESAGGSAGGSAGGS [r10_535_JUSTAS] | low band
* SAGGMTLEDLAGQSIEEALDLIEENGWDEVTITYPGGSKIEIKYNKDGPIEVEWENPDGNKQTFTIPSAGGS [r8_51_TrROS] | middle band
* SAGGSAGGSAAPIPPDQSATSLTLLPDGTVRKTTTTYPPPEFVTTTTTTIPISPEEGAAAGSAGGSAGGSAG [r3_437_JUSTAS] | low band
* SAGGSAGGSASAWEQYPNTTPGTTSKTDDVTVRTLTFPNPTTVVTVTEFPGGEVTVTTVPTPSAGGSAGGSA [r18_26_JUSTAS] | low band
* SMTVVTVEKTPDGGVTITVYVPETGEEVEIPVTDPEVQKKATEDPNTTVKVPKEVLESFYPDRITSLSYTSA [r9_390_JUSTAS] | middle band
* SAGGSAGGSAGGIAEALKAAFPDEGVEVVSIHPDGKVEVRVDGTPELREKVEKAVKELLSSAGGSAGGSAGG [r11_418_TrMRF] | middle band
* SAMEINIVLVAPPESPEALELAKEVAELVAKEIEEEGIPVEVEVEKIEFFRLPDGSIVVLIPIKVKPPESAG [r14_48_TrMRF] | high band
* SAGMTFEVRYPLPPGQTHKEAREEVKDMVESIAREFMPEGWKIEPKDIDVDPDKGWIEYKVDIEIPPGMSAG [r5_146_TrROS] | high band
* SAGGMKVDPKTNITTIEFPSSNLPELKEAIEKTGEKPVVVILKDPNSDREVRITLTKEEALKYLEKKSAGGS [r16_797_JUSTAS] | middle band
* SAGGSAGGSATLTVEVLEEVVEPVPDPSLTPVRLLVRDPANGELREAVVIRDPRRGALRLESAGGSAGGSAG [r3_1_JUSTAS] | low band
* SAKVYRTKDGKEVKVEKKKVKVKTIEIEIEIEMPKELEEKVKKLAEELAKKLAEELNLPPGAKIKITVRSAG [r14_453_TrROS_Hall] | high band
* DDNQEYEYENPGGMKMRVEYNPSTGNMKVEMEPVPPVPPIPPIMIPLDLTPEQANRLINELQDLGIPIMVGS [r1_242_TrROS] | high band

====

Experiment: folding stability dG unfold from trypsin proteolysis; higher = more stable
// values below are reported folding stability dG unfold
resultType: folding stability dG unfold

* SAGGSAGGSAALGDESLHRPVPVVSTSPVTTTTTLTLTPPNGVTVTESVTTTTTVYGSGAASAGGSAGGSAG [r3_380_JUSTAS] | 0.553 kcal/mol
* SAGGSKELKPGDIITFPKSVSEEEIKEKVKELMEKYGIKGIISIEKKSPNSYIVKIEYPDGNPLAISAGGSA [r2_168_JUSTAS] | 2.1 kcal/mol
* SAGGSAGGSPNDMKEVDFPIKFPKEKFKVKIWRHPDDPNRYYIRFPSNGAIFWFDPNGDIEPLSAGGSAGGS [r12_580_TrROS] | 1.01 kcal/mol
* SAGGSAEVRVVAEPLPDDYLLVLVEFDSPEVLPEALEAIPGVVEVRAYRFLEEGRPRYRVLALVPASAGGSA [r15_344_TrMRF] | 1.4 kcal/mol
* SAGGSAGGSAGGPEEPEKLTLRVTLTFYNPETQEPVEEVEVEITLTAEDLKEGKITITPSAGGSAGGSAGGS [r10_672_TrROS_Hall] | 1.54 kcal/mol
* SAGGSAGGSAGFNIRIVNVEITGNKLTIYLPNGWVITIKFNKNGNINMKIEDIKPLPPGASAGGSAGGSAGG [r17_173_TrROS] | 3.02 kcal/mol
* SAGGSAGGSAGEFEIIIPPGVAEERPELLEEIRDRFKPLGLEVEVEYIPGEGYVRVKVKGSAGGSAGGSAGG [r11_357_TrMRF] | 1.36 kcal/mol

====

Test: folding stability dG unfold from chymotrypsin proteolysis; higher = more stable
resultType: folding stability dG unfold (kcal/mol)

* SAGMDLKIEEEEDPLSGSRLFRIELRDPDGKYNLTVVVLKENGKIKAVLVLRENTGEPLTLPELVELLESAG [r5_872_TrMRF] | 3.77
* SAGGSFVVIEPTADGVRIVLEDDGALREVPVSPEVAAALAANPDLEGVVRSLLPEGHPIERIAAVPGSAGGS [r16_567_TrMRF] | -0.476
* SAGGSAGGSGGMRVIRTKLEETEFFEETGESRTFEGLVIVEKEIYLPPYPRYPVFRFDEEKEASAGGSAGGS [r12_140_JUSTAS] | -0.379
* SAGKKPKVIEKTITIKVYDKKTKKEYEIKIKVRVVKKDGKVIEEFSEEEAKELAKKLAEELKKNKNIKPSAG [r5_426_TrROS_Hall] | 2.44

====

Experiment: folding stability dG unfold from trypsin proteolysis; higher = more stable
The threshold is inclusive: folding stability dG unfold of exactly 3 kcal/mol counts as Met; values below receive Not met.

* SAGGSAGGSMKITINKWDPDNGNIMVTIQMPGQPVEIMIPWNNVDKLLEKLPFPGMKIDEIYPSAGGSAGGS [r12_23_TrROS] | Not met
* SAGGSAGGSAIVILLPWGFLIEIKNIRMEMKRDPGNGEPKMDMHIPIEIIPIPPPGDPAFQESAGGSAGGSA [r18_6_TrROS] | Not met
* SAGGSAGLRVRLADGSELSVSPIPDKLRVVVTLPNGARIPIDVEDGELVEIVRDPAVPADFYIEEISAGGSA [r15_709_JUSTAS] | Not met
* SGKKKIKIYVESIEVFEDGVVKIKVKAIFPDGSEEDVIAEIRVEPDEDGRPHLLVVIRIGDKDFLLVLDASA [r9_271_TrMRF] | Not met
* SAGSPLYEVKSEEVLPGPGGEPMRVTVVELPGGEILTFVESPDGLLEIRYIPAETGKFEKTEKVPRDLLSAG [r5_750_JUSTAS] | Not met
* SPLTAEQIKKLLRELFPNAKIVSIEYDKENKTVTITFEDGLKIEVTVTEDGRVIIRITLPGKEITIEIEVSA [r9_304_TrROS_Hall] | Met
* SSLEIPPEVLAEIKKAALEGDDEKVKELLKELGFTKVEIKYEKLDGKVKLTIKVEHPEGPATITFSDELLSA [r9_783_JUSTAS] | Met
